So I've got a bunch of molecules here, and I need their CC50 values.
Assay: Cytotoxicity against human Hep2 cells
Type: cell-based, HEp-2
Answer format: numeric, µM implied, no suffix.

Prompt line: Name the reported CC50 value associated with the molecule Cn1c(=O)c2ccccc2n(Cc2nc3ccccc3n2CCCCO)c1=O
Response line: 48.6

Prompt line: Then CC(C)CCn1c(Cn2c(=O)oc3ccccc32)nc2ccccc21 ?
Response line: 30.7

* * *

So I've got a bunch of molecules here, and I need their CC50 values.
Assay: Cytotoxicity against human Hep2 cells
Type: cell-based, HEp-2

Prompt line: Name the reported CC50 value associated with the molecule O=C1CSc2ccccc2N1Cc1nc2ccccc2n1CCCCF
Response line: > 96.4 µM

Prompt line: Then CS(=O)(=O)CCCn1c(Cn2c(=O)n(CC(F)(F)F)c(=O)c3ccccc32)nc2cc(CN)ccc21 ?
Response line: > 123 µM

Prompt line: Then NCc1ccc2c(c1)nc(Cn1c(=O)n(C3CC3)c(=O)c3ccccc31)n2CCCCO ?
Response line: > 181 µM

Prompt line: Then N#CCCCn1c(CN2C(=O)N(C3CC3)S(=O)(=O)c3ccccc32)nc2ccccc21 ?
Response line: > 244 µM

Prompt line: Then CC(C)CCn1c(Cn2c(=O)n(CC(=O)O)c(=O)c3ccccc32)nc2ccccc21 ?
Response line: > 221 µM
